Provenance of the data: ChEMBL document CHEMBL1201862

Provide the recorded GI50 for the entries that follow.
system: CCRF-CEM; assay: NCI tumour cell line growth inhibition, 48 h
Calls of active or inactive are those of the source. Rule as the data show it: active = GI50 up to about 1.1 µM and inactive = higher.

Form: Entry = CC(C)(C)C(=O)O[C@@H]1COC2C(O)COC21 (stereo partly specified) | System = CCRF-CEM | GI50 = ____ > 100 µM (inactive)

Form: Entry = C/C(=N\NC(=S)NC(CCC(=O)O)C(=O)O)c1cnccn1 (stereo unspecified) | System = CCRF-CEM | GI50 = ____ > 100 µM (inactive)

Form: Entry = C=CCN1C(=O)C/C(=C2/CCC(=O)N2CC=C)C1=O | System = CCRF-CEM | GI50 = ____ > 100 µM (inactive)

Form: Entry = [N-]=[N+]=CC(=O)OC1CCOCC1 | System = CCRF-CEM | GI50 = ____ > 100 µM (inactive)

Form: Entry = CC1C(c2ccc(F)cc2)c2cc3c(cc2OC1N1CCCC1)OCO3 (stereo unspecified) | System = CCRF-CEM | GI50 = ____ 30.8 µM (inactive)

Form: Entry = COC(=O)c1c(C)cccc1C1CN=NC12Cc1ccc(C)c(C)c1C2=O (stereo unspecified) | System = CCRF-CEM | GI50 = ____ 24.3 µM (inactive)

Form: Entry = COC(=O)c1cc2c(cc1CC1Cc3cc4c(cc3C1)CCC4)CCC2 | System = CCRF-CEM | GI50 = ____ 16.9 µM (inactive)

Form: Entry = CCOC(=O)/C(C(=S)Nc1ccccc1)=C(/N)N1CCCC1 | System = CCRF-CEM | GI50 = ____ 46.1 µM (inactive)

Form: Entry = C[C@H]1CC[C@@]2(OC1)O[C@H]1C[C@H]3[C@@H]4CC[C@@H]5C[C@@H](OC6OC(CO)C(O)C(O)C6OC6OC(CO)C(O)C(O)C6O)CC[C@]5(C)[C@H]4CC[C@]3(C)[C@H]1[C@@H]2C (stereo partly specified) | System = CCRF-CEM | GI50 = ____ 1.58 µM (inactive)

Form: Entry = N#Cc1c(O)c2ccccc2[nH]c1=O | System = CCRF-CEM | GI50 = ____ > 100 µM (inactive)

Form: Entry = CC(=O)OC1CC2(c3ccccc3)C(=O)c3ccccc3N2O1 (stereo unspecified) | System = CCRF-CEM | GI50 = ____ > 100 µM (inactive)

Form: Entry = CCCCCc1c(CCCC)c(=O)[nH]c2cc(CNCC(OC)OC)ccc12 | System = CCRF-CEM | GI50 = ____ 4.05 µM (inactive)

Form: Entry = COc1cc2c(cc1OC)C1=Cc3ccc(OC)c(OC)c3C(C#N)N1CC2 (stereo unspecified) | System = CCRF-CEM | GI50 = ____ 37.9 µM (inactive)

Form: Entry = O=c1cccccc1NCCCCCCCCCNc1cccccc1=O | System = CCRF-CEM | GI50 = ____ 5.94 µM (inactive)

Form: Entry = COc1cc2c(c(OC)c1OC)-c1c(cc3c(c1OC)OCO3)CC(C)C(C)(O)C2OC(=O)c1ccccc1 (stereo unspecified) | System = CCRF-CEM | GI50 = ____ 25.9 µM (inactive)

Form: Entry = COc1ccccc1NC(=O)CC(=O)N1N=C(N2c3ccccc3Sc3ccccc32)CC1c1ccccc1 (stereo unspecified) | System = CCRF-CEM | GI50 = ____ > 100 µM (inactive)

Form: Entry = COc1cccc(-c2cc(O)c3cc(OC)c(OC)cc3n2)c1 | System = CCRF-CEM | GI50 = ____ 31.8 µM (inactive)

Form: Entry = COc1ccc2[nH]c(CCNC(=O)c3cc([N+](=O)[O-])cc([N+](=O)[O-])c3)cc2c1 | System = CCRF-CEM | GI50 = ____ > 100 µM (inactive)

Form: Entry = COc1ccc(/N=N/c2c(O)ccc3ccccc23)cc1 | System = CCRF-CEM | GI50 = ____ > 100 µM (inactive)

Form: Entry = CC1=CC2(O)OC3(CC2=C(C)C)C(C)CCC13 (stereo unspecified) | System = CCRF-CEM | GI50 = ____ > 100 µM (inactive)

Form: Entry = CC1=C(/C(C)=N/NS(=O)(=O)c2ccc(C)cc2)Sc2ccccc2N1 | System = CCRF-CEM | GI50 = ____ 32.9 µM (inactive)
